Target: T1, human IL-18BP (interleukin-18 binding protein, isoform A) (human, UniProt O95998 31-194)
T1 construct: cell assays used Sino Biological 10357-H08H; PBMC assay 1 relies on endogenous IL-18BP; UniProt number is printed as 095998; also called hIL-18BP
T1 sequence: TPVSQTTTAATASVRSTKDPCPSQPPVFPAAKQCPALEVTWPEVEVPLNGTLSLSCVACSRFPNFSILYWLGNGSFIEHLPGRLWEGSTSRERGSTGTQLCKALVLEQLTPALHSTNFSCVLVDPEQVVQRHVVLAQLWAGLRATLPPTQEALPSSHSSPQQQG
Assay: BLI (Octet), mAb on AHC biosensor
pKd: −log10 of the molar value.
binders and their reported pKd

# BINDER, pKd
records = [
    ("SA44a (antibody, human IgG1, V domains shown, murine variable regions on human IgG1 kappa constant regions) VH: DVQLQESGPDLVKPSQSLSLTCTVTGYSITSDYNCHWIRQFPGNKLEWMGYIHYSGSTNYNPSLKSRISITRDTSKNQFFLQLNSVTAEDTATYYCARNYGSIYVNYFDYWGQGTTLTVSS VL: QIVLTQSPAIMSASPGEKVTISCSASSSVSYMYWYQQEPGSSPKPWIYRTSNLASGVPPRFSGSGSGTSYSLTISSMEAEDAATYFCQQYHSYPTFGGGTKLEIK", 9.29),
    ("SA04a (antibody, human IgG1, V domains shown, murine variable regions on human IgG1 kappa constant regions) VH: QIQFVQSGPEVKTPGETVKISCKASVYTFTEYPMHWLKQAPGEDFEWMGWIHTYSGEPTYADDFKGRFAFSLETSASTAYLQINNLKTEDTATYFCARGRYYGALDYWGQGTALT VL: DIQMTQTPSSLSASLGDRVTISCRASQDISNYLNWYQQKPDGTVKLLIYYTSRLHSGVPSRFSGSGSGTDYSLTISNLEQEDVATYFCQHGNTLPRTFGGGTKLEIK", 9.60),
    ("SA35a (antibody, human IgG1, V domains shown, murine variable regions on human IgG1 kappa constant regions) VH: QVQLQQSGAELVRPGVSVKISCKGSGYTFTDYPMHWVKQSHAKSLEWIGVISTYYGDASYNQKFKGKATMTVDKSSSTAYMELARLTSEDSAIYYCARWRGSFDYWGQGTTLTVSS VL: ENVLTQSPAIMSASPGEKVTMTCRASSSVSSSYLHWYQQKSGASPKLWIYSTSNLASGVPARFSGSGSGTSYSLTISSVEAEDAATYYCQQYSGYHTFGGGTKLEIK", 7.96),
    ("SA31a (antibody, human IgG1, V domains shown, murine variable regions on human IgG1 kappa constant regions) VH: QVQLQQPGSELVRPGASVKLSCKASGYTFTSYWMHWVKQRPGQGLEWIGNIYPGSGNTIYDEKFKSKATLTVDTSSSTAYMQLSSLTSEDSAVYYCTRWDNWEGYYFDYWGQGTTLTVSS VL: DIVMTQAAFSNPVTLGTSASISCRSSKSLLHSNGITYLYWYLQKPGQSPQLLIYQMSNLASGVPDRFSSSGSGTDFTLRISRVEAEDVGVYYCAQNLELPWTFGGGTKLEIK", 8.52),
    ("SA32a (antibody, human IgG1, V domains shown, murine variable regions on human IgG1 kappa constant regions) VH: EVQLQQSGPELVKTGASVKISCKASGYSFTGYYMHWVKQSHGKSLEWIGYISCYNGATSYNQKFKGKATFTVDTSSSTAYMQFNSLTSEDSAVYYCAITLHYAMDYWGQGTSVAS VL: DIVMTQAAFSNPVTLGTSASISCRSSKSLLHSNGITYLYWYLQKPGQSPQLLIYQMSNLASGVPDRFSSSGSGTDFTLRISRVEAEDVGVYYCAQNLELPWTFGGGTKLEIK", 7.77),
    ("SA33a (antibody, human IgG1, V domains shown, murine variable regions on human IgG1 kappa constant regions) VH: QVQLQQSGAELVRPGVSVKISCKGSGYTFTDYAMHWVKQSHAKSLEWIGVISTYYGDASYNQKFKGKATMTVDKSSSTAYMELARLTSEDSAIYYCARERDYYGSRLFDYWGQGTTLTVSS VL: EIVLTQSPTTMAASPGEKITITCSANSSISSNYLHWYQQKPGFSPKLLIYGTSNLASGVPARFSGSGSGTSYSLTIGTMEAEDVATYYCQQGSSIPYTFGGGTKLEIK", 8.52),
    ("SA34a (antibody, human IgG1, V domains shown, murine variable regions on human IgG1 kappa constant regions) VH: QVQLQQSGAELARPGASVKLSCKASGYTFTDYYINWVKQRTGQGLEWIGEIYPGSGNTYYNEKFKGKATLTADKSSSTAYMQLSSLTSEDSAVYFCARGYYGRFAYWGQGTLVTVSA VL: DIVMTQAAFSNPVTLGTSASISCRSSKSLLHSNGITYLYWYLQKPGQSPQLLIYQMSNLASGVPDRFSSSGSGTDFTLRISRVEAEDVGVYYCDQNLELPFTFGSGTKLEIK", 7.74),
]
